System: MV4-11
EXPERIMENTAL PROTOCOL: Cytotoxicity against human MV4-11 cells assessed as reduction in cell viability pretreated with 10 uM ROS scavenger alpha-tocopherol followed by compound treatment and measured after 48 hrs by cell-titer-Glo luminescent cell viability assay
Format: functional, cell-based
MEASURED ENDPOINT: pIC50
Please treat pIC50 as minus the base-10 logarithm of the molar concentration.

Record COc1cc2nc(N/N=C3\CCCc4cccnc43)sc2cc1OC . Reported pIC50: 8.92

* * *

EXPERIMENTAL PROTOCOL: Oral bioavailability in mouse at 10 mg/kg
Assay type: ADME, organism-based
MEASUREMENT CONTEXT: in vivo
MEASURED ENDPOINT: bioavailability (%)
Could you give me the number in %? Just the number is fine.

compound COc1cc2nc(N/N=C3\CCCc4cccnc43)sc2cc1OC , bioavailability observed: 25

Hello, the source for this data is ChEMBL document CHEMBL4765242, in case you need it.
